Cited source for all entries: ChEMBL document CHEMBL1909046

- protocolNotes: DRUGMATRIX: ATPase, Na+/K+ enzyme inhibition (substrate: ATP)
- Assay type: tissue-based, Sus scrofa, Heart
- assaySetup: Not Active = under 50% inhibition at 10 µM
measureName: Ki

>  <molecule>
COc1cc(N)c(Cl)cc1C(=O)NC1CCN(CCCOc2ccc(F)cc2)CC1OC (stereo not given) [CISAPRIDE]

>  <Ki>
Not Active

$$$$
>  <molecule>
NC(=O)N1C(=O)/C(=C(\O)c2cccs2)c2cc(Cl)ccc21

>  <Ki>
Not Active

$$$$
>  <molecule>
C#CC1(O)CC[C@H]2[C@@H]3CCC4=CC(=O)CC[C@@H]4[C@H]3CC[C@@]21CC (stereo not given in full)

>  <Ki>
Not Active

$$$$
>  <molecule>
COc1ccc(CCN(C)CCCC(C#N)(c2ccc(OC)c(OC)c2)C(C)C)cc1OC (stereo not given)

>  <Ki>
Not Active

$$$$
>  <molecule>
COC(=O)CCc1ccc(OCC(O)CNC(C)C)cc1 (stereo not given)

>  <Ki>
Not Active

$$$$

Could you tell me Ki for each of these molecules? They are listed below.
1. Brc1c(NC2=NCCN2)ccc2nccnc12
2. Oc1cccc(O)c1O
3. CC(C)NCC(O)c1ccc(NS(C)(=O)=O)cc1 (stereo not given)
4. Nc1ccn([C@@H]2O[C@H](CO)[C@@H](O)[C@@H]2O)c(=O)n1
5. Cn1c(=O)c2nc[nH]c2n(C)c1=O.O

## Result
1. Not Active
2. Not Active
3. Not Active
4. Not Active
5. Not Active

----------
- targetOfAssay: Sodium-dependent dopamine transporter (Homo sapiens, UniProt Q01959)
- Sequence (Q01959 whole entry): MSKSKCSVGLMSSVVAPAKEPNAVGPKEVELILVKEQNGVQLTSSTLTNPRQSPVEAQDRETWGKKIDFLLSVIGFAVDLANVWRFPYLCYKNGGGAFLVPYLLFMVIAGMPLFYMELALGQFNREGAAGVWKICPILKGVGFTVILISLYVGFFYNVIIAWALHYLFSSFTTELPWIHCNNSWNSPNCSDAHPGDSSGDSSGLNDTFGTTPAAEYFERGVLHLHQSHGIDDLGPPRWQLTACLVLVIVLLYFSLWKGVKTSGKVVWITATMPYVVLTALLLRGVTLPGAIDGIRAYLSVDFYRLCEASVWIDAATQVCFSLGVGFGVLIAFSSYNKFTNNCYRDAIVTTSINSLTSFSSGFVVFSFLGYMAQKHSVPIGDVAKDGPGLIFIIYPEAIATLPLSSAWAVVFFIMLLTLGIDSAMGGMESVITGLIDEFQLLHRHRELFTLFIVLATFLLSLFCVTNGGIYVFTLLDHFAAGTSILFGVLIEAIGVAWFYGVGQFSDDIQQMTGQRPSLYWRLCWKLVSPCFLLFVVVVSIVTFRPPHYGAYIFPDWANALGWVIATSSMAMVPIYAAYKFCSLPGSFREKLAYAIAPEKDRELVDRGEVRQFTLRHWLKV
- protocolNotes: DRUGMATRIX: Dopamine Transporter radioligand binding (ligand: [125I] RTI-55)
- Type: cell membranes, CHO-K1, Membrane
- assaySetup: cho-k1; Not Active = under 50% inhibition at 10 µM
measureName: IC50

Worked set:
>  <compound>
CCCCOc1cc(CC2CNC(=O)N2)ccc1OC (stereo not drawn)

>  <measureName>
IC50

>  <readoutValue>
Not Active

$$$$
>  <compound>
CC1(C)S[C@@H]2[C@H](NC(=O)[C@H](N)c3ccccc3)C(=O)N2[C@H]1C(=O)O

>  <measureName>
IC50

>  <readoutValue>
Not Active

$$$$
>  <compound>
N=C(N)NC(=O)Cc1c(Cl)cccc1Cl

>  <measureName>
IC50

>  <readoutValue>
Not Active

$$$$
>  <compound>
O=C(Oc1ccccc1C(=O)O)c1ccccc1O [SALSALATE]

>  <measureName>
IC50

>  <readoutValue>
Not Active

$$$$

Could you tell me IC50 for each of these compounds? They are listed below.
1. O=C1Nc2ccc(Cl)cc2C(c2ccccc2Cl)=NC1O (stereo not drawn)
2. Cc1ccc(NC(=O)c2ccc(CN3CCN(C)CC3)cc2)cc1Nc1nccc(-c2cccnc2)n1
3. COc1ccc(C(=O)N2CCCC2=O)cc1
4. CC(=O)O[C@H]1C(=O)[C@@]2(C)[C@H]([C@H](OC(=O)c3ccccc3)[C@]3(O)C[C@H](OC(=O)[C@H](O)[C@@H](NC(=O)c4ccccc4)c4ccccc4)C(C)=C1C3(C)C)[C@]1(OC(C)=O)CO[C@@H]1C[C@@H]2O

## Result
Not Active
Not Active
Not Active
Not Active

----------
For each of the compounds below, state its pKi.
- protocolNotes: DRUGMATRIX: Imidazoline I2, Central radioligand binding (ligand: [3H] Idazoxan)
- Type: cell membranes, Rattus norvegicus, Wistar, Cerebral cortex, Membrane
- assaySetup: Not Active = under 50% inhibition at 10 µM; read-out: Ki
One number for each entry, as −log10 of the molar value.

>  <compound>
COc1ccc(CCN(C)CCCC(C#N)(c2ccc(OC)c(OC)c2)C(C)C)cc1OC (stereo not drawn)

>  <pKi>
5.43

$$$$
>  <compound>
Clc1ccccc1CN1CCc2sccc2C1

>  <pKi>
5.83

$$$$

## Task Kindly indicate its recorded pKi. Item: COc1cc2nc(N3CCN(C(=O)C4CCCO4)CC3)nc(N)c2cc1OC (stereo not drawn)
## Result 6.07

----------
- targetOfAssay: Neuropeptide Y receptor type 1 (Homo sapiens, UniProt P25929); further: in other assays of this panel Not Active means under 50% inhibition at 10 µM
- Sequence (P25929 whole entry): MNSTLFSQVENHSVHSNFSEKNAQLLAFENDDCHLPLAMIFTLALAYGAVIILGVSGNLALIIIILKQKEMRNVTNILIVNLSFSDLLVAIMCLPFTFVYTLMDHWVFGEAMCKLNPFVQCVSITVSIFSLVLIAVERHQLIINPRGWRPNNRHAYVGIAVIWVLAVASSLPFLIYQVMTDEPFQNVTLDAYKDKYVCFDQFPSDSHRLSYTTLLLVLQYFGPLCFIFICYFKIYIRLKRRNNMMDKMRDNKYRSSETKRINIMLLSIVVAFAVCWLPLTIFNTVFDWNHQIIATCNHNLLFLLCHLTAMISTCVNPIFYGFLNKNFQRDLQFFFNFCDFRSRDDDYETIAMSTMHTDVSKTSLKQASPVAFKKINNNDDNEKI
- Assay type: cell membranes, Membrane
- assaySetup: sk-n-mc
measureName: IC50

Worked set:
>  <compound>
CC1(C)S[C@@H]2[C@H](NC(=O)[C@H](N)c3ccccc3)C(=O)N2[C@H]1C(=O)O

>  <IC50>
Not Active

$$$$
>  <compound>
Nc1cc(N2CCCCC2)nc(N)[n+]1[O-]

>  <IC50>
Not Active

$$$$
>  <compound>
CCN(CC)CCNC(=O)c1cc(S(C)(=O)=O)ccc1OC [TIAPRIDE]

>  <IC50>
Not Active

$$$$
>  <compound>
Nc1ccc2c3c(cccc13)C(=O)NC2=O

>  <IC50>
Not Active

$$$$
>  <compound>
Cc1cc2c(OCC(CNC(C)(C)C)OC(=O)c3ccccc3)cccc2[nH]1 (stereo not given)

>  <IC50>
Not Active

$$$$

Could you tell me IC50 for each of these compounds? They are listed below.
1. O.O.O.O.O.O.[Cl-].[Cl-].[Sr+2] [STRONTIUM CHLORIDE HEXAHYDRATE]
2. C[C@@H]1C[C@H]2[C@@H]3CCC4=CC(=O)C=C[C@]4(C)[C@@]3(F)[C@@H](O)C[C@]2(C)[C@H]1C(=O)CO
3. O=C1O[C@H]([C@@H](O)CO)C(O)=C1O
4. NC(=O)C[S+]([O-])C(c1ccccc1)c1ccccc1 (stereo not given)
5. O=C(Nc1ccc(Br)cc1)c1cc(Br)cc(Br)c1O
6. CNCCC(Oc1ccc(C(F)(F)F)cc1)c1ccccc1 (stereo not given)
7. Cn1c(=O)c2nc[nH]c2n(C)c1=O.O

## Result
1: Not Active; 2: Not Active; 3: Not Active; 4: Not Active; 5: Not Active; 6: Not Active; 7: Not Active

Could you tell me IC50 for each of these compounds? They are listed below.
1. COc1ccc(CCN(C)CCCC(C#N)(c2ccc(OC)c(OC)c2)C(C)C)cc1OC (stereo not given)
2. NC1CCN(c2nc3c(cc2F)c(=O)c(C(=O)O)cn3-c2ccc(F)cc2F)C1 (stereo not given)
3. COC(=O)Nc1nc2ccc([S+]([O-])c3ccccc3)cc2[nH]1 (stereo not given)

## Result
1. Not Active
2. Not Active
3. Not Active

Could you tell me IC50 for each of these compounds? They are listed below.
1. NNc1nncc2ccccc12 [HYDRALAZINE]
2. CN[C@H]1CC[C@@H](c2ccc(Cl)c(Cl)c2)c2ccccc21
3. Cn1c(=O)c2c(ncn2CC(O)CO)n(C)c1=O (stereo not given)
4. CCN(CC)CC(=O)Nc1c(C)cccc1C
5. C[n+]1ccccc1/C=N/O.[Cl-] [PRALIDOXIME CHLORIDE]

## Result
1. Not Active
2. Not Active
3. Not Active
4. Not Active
5. Not Active

----------
- targetOfAssay: Receptor tyrosine-protein kinase erbB-2 (Homo sapiens, UniProt P04626); further: in other assays of this panel Not Active means under 50% inhibition at 10 µM;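 further: inhibition of HER2 kinase enzyme activity, measured with Poly(Glu:Tyr) as the phosphorylation substrate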
- Sequence (P04626 whole entry): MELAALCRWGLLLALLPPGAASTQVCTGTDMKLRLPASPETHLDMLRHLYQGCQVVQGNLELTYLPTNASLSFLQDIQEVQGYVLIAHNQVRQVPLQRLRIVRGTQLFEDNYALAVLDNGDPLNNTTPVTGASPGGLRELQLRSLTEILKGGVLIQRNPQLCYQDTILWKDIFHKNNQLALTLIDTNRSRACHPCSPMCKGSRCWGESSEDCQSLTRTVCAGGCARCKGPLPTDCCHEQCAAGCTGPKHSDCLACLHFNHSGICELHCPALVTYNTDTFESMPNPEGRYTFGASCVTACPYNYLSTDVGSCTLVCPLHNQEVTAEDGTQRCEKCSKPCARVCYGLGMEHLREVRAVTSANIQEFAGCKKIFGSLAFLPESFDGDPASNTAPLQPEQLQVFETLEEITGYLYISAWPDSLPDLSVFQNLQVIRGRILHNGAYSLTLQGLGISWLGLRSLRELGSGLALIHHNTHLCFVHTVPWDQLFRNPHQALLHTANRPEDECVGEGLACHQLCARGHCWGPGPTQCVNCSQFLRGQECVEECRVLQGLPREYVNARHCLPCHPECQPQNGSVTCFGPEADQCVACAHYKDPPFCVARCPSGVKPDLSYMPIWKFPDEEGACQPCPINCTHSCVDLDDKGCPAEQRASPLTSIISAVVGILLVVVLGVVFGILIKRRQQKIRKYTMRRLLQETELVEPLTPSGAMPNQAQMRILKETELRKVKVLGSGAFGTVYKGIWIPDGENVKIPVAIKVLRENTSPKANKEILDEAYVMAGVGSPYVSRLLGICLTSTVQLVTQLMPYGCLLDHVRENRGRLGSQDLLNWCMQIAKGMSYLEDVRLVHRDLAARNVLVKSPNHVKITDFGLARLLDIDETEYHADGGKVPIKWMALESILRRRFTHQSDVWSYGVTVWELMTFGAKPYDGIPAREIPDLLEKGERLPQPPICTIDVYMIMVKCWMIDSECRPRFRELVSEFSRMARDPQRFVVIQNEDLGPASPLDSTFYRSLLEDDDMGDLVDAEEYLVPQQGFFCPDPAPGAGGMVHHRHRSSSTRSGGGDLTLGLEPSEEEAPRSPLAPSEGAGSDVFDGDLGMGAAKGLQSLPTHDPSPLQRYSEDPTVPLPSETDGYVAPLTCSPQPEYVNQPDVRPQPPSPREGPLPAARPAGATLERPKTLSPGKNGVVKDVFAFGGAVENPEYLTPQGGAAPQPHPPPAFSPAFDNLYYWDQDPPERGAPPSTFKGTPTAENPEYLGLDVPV
- protocolNotes: biochemical
- Type: cell-based, Insect cells
- assaySetup: insect cells
measureName: IC50

Worked set:
>  <molecule>
COc1ccc(CCN(C)CCCC(C#N)(c2ccc(OC)c(OC)c2)C(C)C)cc1OC (configuration not stated)

>  <measureName>
IC50

>  <readoutValue>
Not Active

$$$$
>  <molecule>
CO[C@@H]1[C@@H](OC)[C@H](C)[C@@](O)(CC(=O)O)O[C@H]1[C@H](C)[C@H]1O[C@@]2(CC[C@@](C)([C@H]3CC[C@@](C)([C@@H]4O[C@@H]([C@H]5O[C@](C)(O)[C@H](C)C[C@@H]5C)C[C@@H]4O[C@@H]4C[C@H](OC)[C@@H](OC)[C@H](C)O4)O3)O2)C[C@H](O)[C@H]1C

>  <measureName>
IC50

>  <readoutValue>
Not Active

$$$$
>  <molecule>
CC(C)NCC(O)c1ccc(O)c(O)c1 (configuration not stated)

>  <measureName>
IC50

>  <readoutValue>
Not Active

$$$$
>  <molecule>
O=C1O[C@H]([C@@H](O)CO)C(O)=C1O

>  <measureName>
IC50

>  <readoutValue>
Not Active

$$$$
>  <molecule>
NC(=O)C[S+]([O-])C(c1ccccc1)c1ccccc1 (configuration not stated)

>  <measureName>
IC50

>  <readoutValue>
Not Active

$$$$

Could you tell me IC50 for each of these molecules? They are listed below.
1. COc1ccc2cc3[n+](cc2c1OC)CCc1cc2c(cc1-3)OCO2.[Cl-] [BERBERINE CHLORIDE]
2. NNc1nncc2ccccc12 [HYDRALAZINE]

## Result
1. Not Active
2. Not Active
